Origin of values: ChEMBL document CHEMBL3526139

# ASSAY_SUMMARY: Plasma clearance in human patient with relapsed solid tumor at 20 mg/m'2, iv administered over 2 to 10 mins on days 1, 2, 8, 9, 15 and 16 of 28-day cycle measured on day 1 of cycle 1 by LC-MS/MS analysis
# Type: ADME, organism-based

>  <CHEMICAL_STRING>
CC(C)C[C@H](NC(=O)[C@H](CCc1ccccc1)NC(=O)CN1CCOCC1)C(=O)N[C@@H](Cc1ccccc1)C(=O)N[C@@H](CC(C)C)C(=O)[C@@]1(C)CO1

>  <clearance [mL/min]>
2430

$$$$

----------
# ASSAY_SUMMARY: clinical
# TEST_CONDITIONS: human, plasma, po
# Description: AUC(infinity) in solid tumor patient at 2 mg, po administered as single dose followed by co-treatment with 27 mg/m2, iv carfilzomib over 2 to 10 mins on days 1, 2, 8, 9, 15 and 16 of single 28-day cycle measured on day 1

>  <CHEMICAL_STRING>
Cc1ncc2n1-c1ccc(Cl)cc1C(c1ccccc1F)=NC2

>  <AUC(0-inf) / ng·h/mL>
51.5

$$$$

----------
# ASSAY_SUMMARY: AUC last in human patient with relapsed solid tumor at 20 mg/m'2, iv administered on days 1, 2, 8, 9, 15 and 16 of 28-day cycle over 2 to 10 mins measured on day 1 of cycle 1 by LC-MS/MS analysis
# Assay type: ADME, organism-based
# Design: route intravenous, time 0 - last
# TEST_CONDITIONS: plasma

>  <CHEMICAL_STRING>
CC(C)C[C@H](NC(=O)[C@H](CCc1ccccc1)NC(=O)CN1CCOCC1)C(=O)N[C@@H](Cc1ccccc1)C(=O)N[C@@H](CC(C)C)C(=O)[C@@]1(C)CO1

>  <AUC(0-t), ng·h/mL>
238

$$$$

----------
# TESTED_ON: CYP3A (Homo sapiens, UniProt P08684+P20815+P24462+Q9HB55)
# ASSAY_SUMMARY: Inhibition of CYP3A in human liver microsomes treated with carfilzomib by LC-MS/MS analysis
# Assay type: ADME

>  <MOLECULE>
CC(C)CC(NC(=O)C(CCc1ccccc1)NC(=O)CN1CCOCC1)C(=O)NC(Cc1ccccc1)C(=O)NC(CC(C)C)C(=O)C(C)(O)CO (stereo unspecified)

>  <IC50>
> 30 µM

$$$$

----------
# TESTED_ON: CYP3A (Homo sapiens, UniProt P08684+P20815+P24462+Q9HB55)
# ASSAY_SUMMARY: Inhibition of CYP3A in human liver microsomes assessed as substrate metabolite formation using testosterone as substrate measured after 5 mins by LC-MS/MS analysis
# Type: ADME
# TEST_CONDITIONS: probe testosterone

>  <CHEMICAL_STRING>
CC(C)C[C@H](NC(=O)[C@H](CCc1ccccc1)NC(=O)CN1CCOCC1)C(=O)N[C@@H](Cc1ccccc1)C(=O)N[C@@H](CC(C)C)C(=O)[C@@]1(C)CO1

>  <TESTED_ON>
CYP3A (Homo sapiens, UniProt P08684+P20815+P24462+Q9HB55)

>  <IC50 at 5 min>
> 10 µM

$$$$

----------
# TESTED_ON: CYP3A (Homo sapiens, UniProt P08684+P20815+P24462+Q9HB55)
# ASSAY_SUMMARY: Time-dependent inhibition of CYP3A in human liver microsomes assessed as midazolam 1'-hydroxylation using midazolam as substrate by LC-MS/MS analysis
# Type: ADME
# TEST_CONDITIONS: probe midazolam (1'-hydroxylation)
READOUT: kinact (s⁻¹)

>  <COMPOUND>
CC(C)C[C@H](NC(=O)[C@H](CCc1ccccc1)NC(=O)CN1CCOCC1)C(=O)N[C@@H](Cc1ccccc1)C(=O)N[C@@H](CC(C)C)C(=O)[C@@]1(C)CO1 [CARFILZOMIB]

>  <READOUT>
kinact

>  <UNIT_SYMBOL>
s⁻¹

>  <RECORDED_NUMBER>
0.00167

$$$$
